tested on: JEG-3; assay: Primary qHTS to identify gynecologic anti-cancer compounds using libraries of approved drugs and bioactive compounds (AID 1345084); conditions: Gynecologic cancer cell panel viability, ATPlite luminescence, 48 h; series mostly up to 57.5 µM; note: % is set by controls: 0 for no effect and ±100 for the full control effect; nearly all actives have a fitted effect of over 55% in size
Records with an inconclusive call do not appear. Active and inactive are the calls of the source. Calls come from the whole dose curve; as a rule, active = well fitted cell-killing curve with a large enough effect; inconclusive = small, poorly fitted or top-dose-only effect, or effect the other way; inactive = flat fitted curve, though single readings scatter.
Endpoint Name: activity change, negative = cytotoxicity

O=C(O[C@H]1[C@@H]2C=CO[C@@H](O[C@@H]3O[C@H](CO)[C@@H](O)[C@H](O)[C@H]3O)[C@@H]2[C@@]2(CO)O[C@@H]12)c1ccc(O)c(O)c1
inactive
O=c1ccn(C2OC(CO)C(O)C2O)c(=O)[nH]1 (centres undefined)
inactive
COc1cc(/C=C/C(=O)OC(C)(C)C(OC2OC(CO)C(O)C(O)C2O)C(=O)OCc2ccc(OC3OC(CO)C(O)C(O)C3O)cc2)ccc1O (centres undefined)
inactive
CC(=O)O[C@H]1CC[C@@]2(CI)C(=CC[C@@H]3[C@@H]2CC[C@]2(C)[C@@H]([C@H](C)CCCC(C)C)CC[C@@H]32)C1
-2.55% [at 11.6 µM] (inactive)
